Recorded values, source ChEMBL document CHEMBL4513139.

System: Klebsiella pneumoniae
test.name: microbe, parasite or virus in culture
setup.conditions: ATCC 700603, 18 h, ASSAY_TEST Inhibition of Bacterial Growth, detection method Absorption (OD600), MEDIA CAMHB, plate type 384well, NBS, CORNING #3640
Description: Antibacterial activity against Klebsiella pneumoniae MDR ATCC 70063 (CO-ADD:GN_003); MIC in CAMBH media using NBS plates, by OD(600)
recorded.endpoint: MIC

chemical.string	recorded.endpoint	observed.value
Cn1cc(NC(=O)c2ccc(/C=C/c3ccncc3)cc2)cc1C(=O)Nc1cc(C(=O)NCCN2CCOCC2)n(CCCN2CCOCC2)c1.O=C(O)C(F)(F)F.O=C(O)C(F)(F)F	MIC	> 32 µg/mL
Cn1cc(NC(=O)c2cc(NC(=O)c3ccc(/C=C/c4cc5ccccc5nc4On4nnc5ccccc54)cc3)cn2C)cc1C(=O)NCCN1CCOCC1.O=C(O)C(F)(F)F	MIC	> 32 µg/mL
COc1cccc(/C=C/c2ccc(C(=O)Nc3cc(C(=O)Nc4cc(C(=O)NCCN5CCCCC5)n(CCCc5ccccc5)c4)n(C)c3)cc2)c1.O=C(O)C(F)(F)F	MIC	> 32 µg/mL
